Source listed as ChEMBL document CHEMBL3763042.

subject.of.test: Cyclin-dependent kinase 5/CDK5 activator 1 (Homo sapiens)
Sequence (Q00535 whole entry): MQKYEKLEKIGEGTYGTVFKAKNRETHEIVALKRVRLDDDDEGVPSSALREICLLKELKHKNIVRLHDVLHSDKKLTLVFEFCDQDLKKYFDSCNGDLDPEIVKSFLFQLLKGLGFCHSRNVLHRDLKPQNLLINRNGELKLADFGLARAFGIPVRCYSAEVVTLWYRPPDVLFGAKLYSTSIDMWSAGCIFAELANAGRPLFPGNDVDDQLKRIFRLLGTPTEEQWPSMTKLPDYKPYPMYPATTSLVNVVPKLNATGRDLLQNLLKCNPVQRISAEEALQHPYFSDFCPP
Sequence (Q15078 whole entry, further chain): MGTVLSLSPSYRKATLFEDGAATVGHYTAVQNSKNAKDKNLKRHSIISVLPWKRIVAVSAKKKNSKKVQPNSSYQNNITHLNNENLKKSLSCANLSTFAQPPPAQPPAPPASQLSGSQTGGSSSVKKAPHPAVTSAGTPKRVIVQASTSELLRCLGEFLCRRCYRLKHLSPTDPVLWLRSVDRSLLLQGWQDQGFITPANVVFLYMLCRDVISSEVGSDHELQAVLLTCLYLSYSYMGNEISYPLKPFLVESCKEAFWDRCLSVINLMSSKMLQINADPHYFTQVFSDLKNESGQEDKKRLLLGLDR
test: Inhibition of CDK5/p35NCK (unknown origin) using histone H1 as substrate in presence of [gamma-33P]ATP
Format: protein-complex assay
Provide the recorded pIC50 for the entries that follow.
Field pIC50 (float): negative decimal logarithm of the concentration in molar.

Request the reported pIC50 associated with c1cnc2[nH]c(-c3cnnn3CCCc3c[nH]c4ncccc34)cc2c1
4.97

Request the reported pIC50 associated with CC(C)c1cnn2c(NCc3ccccc3)cc(NCCCCCCN)nc12
5.43

Request the reported pIC50 associated with COc1ccccc1-c1cc(Nc2cccc(CS(N)(=O)=O)c2)ncn1
5.30

###

Provide the recorded IC50 for the entries that follow.
subject.of.test: Cyclin-dependent kinase 2/cyclin E1 (Homo sapiens)
test: Inhibition of CDK2/Cyclin E (unknown origin) expressed in baculoviral infected insect Sf9 cells using histone H1 as substrate in presence of [gamma-33P]ATP
measurement.conditions: read-out: pIC50 (converted)

Request the reported IC50 associated with c1cnc2[nH]cc(CCn3nncc3-c3c[nH]c4ncccc34)c2c1
10 µM

Request the reported IC50 associated with O=C(CCn1cc(-c2cc3cccnc3[nH]2)nn1)c1c[nH]c2ncccc12
3.98 µM

Request the reported IC50 associated with O=C(CCn1nncc1-c1cc2cccnc2[nH]1)c1c[nH]c2ncccc12
31.6 µM

Request the reported IC50 associated with c1cnc2[nH]c(-c3cn(CCCc4c[nH]c5ncccc45)nn3)cc2c1
7.94 µM
